Test: yeast display, Sf9 membrane polyspecificity reagent, FACS + sequencing; frameworks hold sequencing errors
MEASURED PROPERTY: polyreactivity (PSR sort gate)

Please review the following examples before continuing.
PRIMARY SEQUENCE: QVHLVESGGGFFQAGGSLRLSCAASVITFPLYAMGWYRPAPGKERELVSAISRNGGRTYYADSVKGRFTISRDNAKNTVYLQMNSLKPEDTAVYYCAKVSRGSVSSPRDDYWGQGTQVNVSS
READOUT VALUE: high polyreactivity
--
PRIMARY SEQUENCE: QVQLVESGGGLVQAGGSLRLSCAASGSIISANAMGWYRQAPGKESELVAAITSGDSTKYADSVKGRFTISRDNAKNTVYLQMNSLKPEDTAVYYCAVDRGVYKNRDGEEYWGQGTQVTVSS
READOUT VALUE: low polyreactivity
--
PRIMARY SEQUENCE: QVQLVESGGGLVQAGGSLRLSCAGSGFTFKWYAMGWYRQAPGKERELVAGISRGGTTNYADSVKGRFTISRDNAKNTVYLQLNSLKPEDTAVYYCAKTSYVSYRGLTYYYWGQGTQVTVSS
READOUT VALUE: high polyreactivity
--
PRIMARY SEQUENCE: QVQLVESGGGLVQAGGSLRLSCAASGRIFYAYAMGWYRQAPGKERELVAAITARGGSTYYADSVKGRFTISRDNAKTTVYLQMNSLKPEDTAVYYCAKDTLLETGYEYWGQGTQVTVSS
READOUT VALUE: high polyreactivity
--
PRIMARY SEQUENCE: QVQLVESGGGLLQAGGSLRLSCAASGYTSSRYAMGWYRQAPGKESELLAAISGTGGSTNYADSVKGRFTISRDNAKNTVYLQMNRLKPEDSAVYYCATRSFGAGYVGVRYYYWGQATQVTVSS
READOUT VALUE: high polyreactivity
--
PRIMARY SEQUENCE: QVQLVESGGGLVQAGGSLRLSCAASGSIFHYYTMGWYRQAPGKERELVAGISRSGGSTYYADSVKGRFTISRDNAKNTVYLQMNSLKPEDTAVYYCAAARYPYLYAYGYWGQGTQVTVSS
READOUT VALUE: high polyreactivity

Lab note: measured polyreactivity (PSR sort gate) of QVQLVESGGGLVKAGGSLRLSCAASGSIIKRYAMGWYRQARGKERELVAAITQSGGRTYYADSVKGRFTISRDNAKNTVYLQMNSLKPEDTAVYYCNAVRWYLYDYWGQGTQVTVSS was high polyreactivity

Lab note: measured polyreactivity (PSR sort gate) of QVQLVESGGGLVQAGGSLRLSCAASGRTFYFNGMGWYRQAPGKERELVATITASGTITYYADSVKGRFTISRDNAKNTVYLQLNSLKPEDTAVYYCAARQRGYYYSRRYDYWGQGTQVTVTS was high polyreactivity

Lab note: measured polyreactivity (PSR sort gate) of QVKLVESGGGLVQAGGSLRLSCADSGRIFYIYAMGWYRQSPGKERELVAAISSGGTTNYADSVKGRLTISRDNAKNTVYLQMNSLKPEDTAVYYCACYWRSRNRFYWGQGTQVTVSS was high polyreactivity

Lab note: measured polyreactivity (PSR sort gate) of QVQLVESGGGLVQAGGSLRLSCAASGSIFAWYAMGWYRQAPGKERELVAAISYRGGRTYYADSVKGRFTISRDNAKNTVYLQMNSLKPEDTAVYYCATDANRGYPSYDYWGQGTQVTVSS was high polyreactivity

Lab note: measured polyreactivity (PSR sort gate) of QVQLEESGGGLVQAGGSLRLSCAASGRTFYPNAMGWYRQAPGKERELVAAITRSGGRTYYADSVKGRFTISRDNAYYTVYLQMNSLKPEDSAVYYCNADLYYLYYKYEYWGQGTQVTVSS was low polyreactivity
